Where these numbers come from: the NIST ThermoML archive (doi:10.1021/je700404u)

- Method Description: refractive index (Na D-line) (dimensionless)
- Experimental Setup: 293.15 K; 101.33 kPa; Liquid; Standard Abbe refractometry
Here, each record is paired with measured refractive index data.
Parameter: refractive index

Smiles Representation	Numeric Readout
CO	1.3287
CCO	1.3619
CC(C)=O	1.359
CCOCCO	1.4065

----------
- Experimental Setup: 293.15 K; 101.33 kPa; Liquid
mass density values for the compounds below.
Parameter: mass density (kg/m3)

Smiles Representation	Readout Units	Numeric Readout
CCOCCO	kg/m3	929
CC(C)=O	kg/m3	790
CCO	kg/m3	789
CO	kg/m3	791
